Items are presented alongside their recorded IC50.
# Test Target: human BRD4 bromodomain II (Homo sapiens)
# Construct: human BRD4 bromodomain II [based on Genbank NM_058243, residues 349-460]; host or cells: E. coli
# Measurement Description: Bromodomain binding assay (AlphaScreen), BRD4 BDII
# Condition Parameters: AlphaScreen assay, Table C2; read-out: BRD4 BDII IC50

>  <Compound Smiles>
Cn1ccn(-c2ccc(-c3cc(F)cc(-c4cccc(N5CCN(C(C)(C)C)CC5)c4)c3O)cc2Cl)c1=O

>  <Test Target>
human BRD4 bromodomain II (Homo sapiens)

>  <IC50>
0.01 to 1 nM

$$$$
>  <Compound Smiles>
Cn1ccn(-c2ccc(-c3cc(F)cc(-c4ccnc(N5CC[S+]([O-])CC5)c4)c3O)cc2Cl)c1=O

>  <Test Target>
human BRD4 bromodomain II (Homo sapiens)

>  <IC50>
0.01 to 1 nM

$$$$
>  <Compound Smiles>
Cn1ccn(-c2ccc(-c3cc(F)cc(-c4ccnc(N5CCC[C@H](O)C5)c4)c3O)cc2Cl)c1=O

>  <Test Target>
human BRD4 bromodomain II (Homo sapiens)

>  <IC50>
0.01 to 1 nM

$$$$
>  <Compound Smiles>
CC(=O)Nc1ccc(-c2cccc(-c3ccnc(N4CCC(O)CC4)c3)c2O)cc1F

>  <Test Target>
human BRD4 bromodomain II (Homo sapiens)

>  <IC50>
10 to 100 nM

$$$$
